Hb by entry:
# Organism: Rattus norvegicus
# measurement_description: Open TG-GATES - Regimen: Daily Repeat
# Assay type: toxicity, organism-based, Sprague-Dawley
# Design: regimen Daily Repeat, gender Male, age 6 weeks
# protocol_conditions: in vivo, po, 0 mg/kg, […], tissue Blood, route gavage, dose level Control, time 14 day
result_type: Hb (g/dL)

{"compound": "CC(C)C(=O)Nc1ccc([N+](=O)[O-])c(C(F)(F)F)c1 [FLUTAMIDE]", "units_of_measure": "g/dL", "recorded_value": 14.4}
{"compound": "CC(=O)Oc1cc(C(C)C)c(OCCN(C)C)cc1C", "units_of_measure": "g/dL", "recorded_value": 15.1}
{"compound": "CC(=N)S [THIOACETAMIDE]", "units_of_measure": "g/dL", "recorded_value": 14.6}
{"compound": "CC(C)(S)[C@@H](N)C(=O)O", "units_of_measure": "g/dL", "recorded_value": 14.8}
{"compound": "CCC(C)(C)C(=O)O[C@H]1C[C@@H](C)C=C2C=C[C@H](C)[C@H](CC[C@@H]3C[C@@H](O)CC(=O)O3)[C@H]21", "units_of_measure": "g/dL", "recorded_value": 13.9}
{"compound": "Nc1nc(N)c2nc(-c3ccccc3)c(N)nc2n1", "units_of_measure": "g/dL", "recorded_value": 14.6}
{"compound": "C[C@](N)(Cc1ccc(O)c(O)c1)C(=O)O", "units_of_measure": "g/dL", "recorded_value": 13.8}
{"compound": "O=C(N[C@H](CO)[C@H](O)c1ccc([N+](=O)[O-])cc1)C(Cl)Cl", "units_of_measure": "g/dL", "recorded_value": 14.6}
{"compound": "CCc1oc2ccccc2c1C(=O)c1cc(I)c(O)c(I)c1", "units_of_measure": "g/dL", "recorded_value": 14.2}
{"compound": "CCSCC[C@H](N)C(=O)O", "units_of_measure": "g/dL", "recorded_value": 14.5}
{"compound": "C#C[C@]1(O)CC[C@H]2[C@@H]3CCc4cc(O)ccc4[C@H]3CC[C@@]21C", "units_of_measure": "g/dL", "recorded_value": 13.9}
{"compound": "CN1C(=O)OC(C)(C)C1=O", "units_of_measure": "g/dL", "recorded_value": 14.9}
{"compound": "C[C@]12CCC(=O)C=C1CC[C@@H]1[C@@H]2CC[C@@]2(C)[C@H]1CC[C@]2(C)O", "units_of_measure": "g/dL", "recorded_value": 14.7}
{"compound": "Oc1ncnc2[nH]ncc12", "units_of_measure": "g/dL", "recorded_value": 14.5}
{"compound": "CCN1CCCC1CNC(=O)c1cc(S(N)(=O)=O)ccc1OC (stereo not given) [SULPIRIDE]", "units_of_measure": "g/dL", "recorded_value": 14.6}
